Hello, the source for this data is the supplement of paper PMC10567573, in case you need it.

B1: BRF1 (parent)
chain: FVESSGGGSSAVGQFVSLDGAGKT

Variants of: B1
Assay: protein stability index of a GFP-peptide fusion (GPS, HEK-293T) (PSI 1-6); higher = more stable;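 also: lentivirally expressed fusions sorted by FACS into six bins by GFP to DsRed ratio, PSI derived from sequencing read proportions per bin multiplied by bin number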
Conditions: c terminus: a fixed tail appended
Parameter threshold = 2. Response is Condition met when protein stability index meets or exceeds it, else Condition not met.

# count of solved cases: 8
FVESSGSGSSAVGQFVSLDGAGKT [G7S] ... Condition not met
FVESSGGGSDAVGQFVSLDGAGKT [S10D] ... Condition met
FVCSSGGGSSAVGQFVSLDGAGKT [E3C] ... Condition not met
FVESSGGGSSAEGQFVSLDGAGKT [V12E] ... Condition met
FVESSGGGSSAVGPFVSLDGAGKT [Q14P] ... Condition met
FVESSGGGSSAVGQFVSLDGAGCT [K23C] ... Condition met
FVESSGGGSSAVGQFVSLHGAGKT [D19H] ... Condition met
FVESSGGGSSAVGQFVSLCGAGKT [D19C] ... Condition not met

Say whether FVESSGGGSSAVGQFVSLAGAGKT [D19A] shows protein stability index of 2 or more.
Condition not met

Say whether IVESSGGGSSAVGQFVSLDGAGKT [F1I] shows protein stability index of 2 or more.
Condition met

Say whether FEESSGGGSSAVGQFVSLDGAGKT [V2E] shows protein stability index of 2 or more.
Condition met

Say whether FVESSGKGSSAVGQFVSLDGAGKT [G7K] shows protein stability index of 2 or more.
Condition met

Say whether FVESSGGQSSAVGQFVSLDGAGKT [G8Q] shows protein stability index of 2 or more.
Condition met

Say whether NVESSGGGSSAVGQFVSLDGAGKT [F1N] shows protein stability index of 2 or more.
Condition met

Say whether FVESSGGGSSAVGQFVSCDGAGKT [L18C] shows protein stability index of 2 or more.
Condition met

Say whether FVVSSGGGSSAVGQFVSLDGAGKT [E3V] shows protein stability index of 2 or more.
Condition met

Say whether FVESSGGGSSAVGQFVSLDGAGLT [K23L] shows protein stability index of 2 or more.
Condition met

Say whether FVESSGGGSSAVGQFVSKDGAGKT [L18K] shows protein stability index of 2 or more.
Condition met
